Test system: SSTR2 mutants
Assay: Bystander BRET endosomal trafficking (β-arrestin 1-Nluc, FYVE-mVenus), HEK293 (SSTR2 mutants)
Conditions: read-out: EC50 (best-fit); R140A-2 (run 2)
QUANTITY NAME: EC50
Answer format: value, then unit.

Quick check: EC50 of "N#Cc1cccc(-c2ccc3ncc(-c4cc(F)cc(F)c4)c(N4CCC(N)CC4)c3c2)c1O" ? 6.64 nM

---

Target: SSTR2 (Homo sapiens, UniProt P30874)
Assay: NanoBiT β-arrestin 1 recruitment assay, HEK293 (SSTR2 wild-type)
Type: cell-based
Parameters: Human full-length SSTR wild-type and mutant vectors were C-terminally fused; expressed in transfected cells; host or cells: HEK293
Settings: EC50 (best-fit), WT-3 (Q126A set)
Sequence (P30874 whole entry): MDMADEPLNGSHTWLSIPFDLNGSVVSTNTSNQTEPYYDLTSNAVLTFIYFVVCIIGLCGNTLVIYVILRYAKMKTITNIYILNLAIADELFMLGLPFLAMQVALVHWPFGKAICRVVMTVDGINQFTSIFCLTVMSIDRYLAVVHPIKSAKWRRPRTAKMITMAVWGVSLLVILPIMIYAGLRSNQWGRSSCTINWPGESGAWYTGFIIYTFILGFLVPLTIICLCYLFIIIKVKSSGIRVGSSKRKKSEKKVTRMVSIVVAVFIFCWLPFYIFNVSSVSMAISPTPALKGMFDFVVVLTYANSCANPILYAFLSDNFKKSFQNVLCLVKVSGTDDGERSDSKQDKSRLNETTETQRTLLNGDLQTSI
Sequence (P49407 whole entry partner): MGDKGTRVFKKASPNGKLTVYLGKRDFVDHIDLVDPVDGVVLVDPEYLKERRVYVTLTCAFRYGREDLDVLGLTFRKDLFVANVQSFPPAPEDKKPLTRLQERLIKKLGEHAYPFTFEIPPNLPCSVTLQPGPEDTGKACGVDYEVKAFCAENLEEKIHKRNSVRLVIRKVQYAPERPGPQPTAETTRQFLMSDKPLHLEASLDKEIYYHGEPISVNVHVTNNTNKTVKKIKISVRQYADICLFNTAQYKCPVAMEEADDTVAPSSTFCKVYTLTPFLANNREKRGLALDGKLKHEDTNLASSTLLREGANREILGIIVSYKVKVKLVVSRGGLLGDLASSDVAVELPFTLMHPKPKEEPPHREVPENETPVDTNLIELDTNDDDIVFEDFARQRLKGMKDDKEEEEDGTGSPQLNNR
QUANTITY NAME: EC50 (nM)
Your answer should be a plain number; it is taken to be in nM.

Quick check: EC50 of N#Cc1cccc(-c2ccc3ncc(-c4cc(F)cc(F)c4)c(N4CCC(N)CC4)c3c2)c1O [paltusotine] ? 455

---

Molecular target: SSTR2 mutants (Homo sapiens, UniProt P30874, K291A)
Sequence (P30874 whole entry K291A): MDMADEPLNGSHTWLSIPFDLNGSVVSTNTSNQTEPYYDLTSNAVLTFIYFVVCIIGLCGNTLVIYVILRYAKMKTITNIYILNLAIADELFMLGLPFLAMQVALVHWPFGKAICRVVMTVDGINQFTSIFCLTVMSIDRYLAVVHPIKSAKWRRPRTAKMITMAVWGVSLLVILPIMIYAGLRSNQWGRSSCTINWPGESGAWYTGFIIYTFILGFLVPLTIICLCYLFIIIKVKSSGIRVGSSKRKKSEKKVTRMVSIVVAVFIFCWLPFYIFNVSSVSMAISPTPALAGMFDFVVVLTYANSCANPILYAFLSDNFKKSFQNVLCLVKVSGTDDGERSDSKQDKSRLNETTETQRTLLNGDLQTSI
Assay: Bystander BRET endosomal trafficking (β-arrestin 1-Nluc, FYVE-mVenus), HEK293 (SSTR2 mutants)
QUANTITY NAME: pEC50
# log scale: pEC50 equals minus log10 of the concentration in mol/L

Quick check: pEC50 of "N#Cc1cccc(-c2ccc3ncc(-c4cc(F)cc(F)c4)c(N4CCC(N)CC4)c3c2)c1O" ? 7.05

---

Target: SSTR2 mutants (Homo sapiens, UniProt P30874, I284A)
Sequence (P30874 whole entry I284A, the tested form may be a part): as the sequence (P30874 whole entry K291A) above, with I284A, A291K counted along it
Experiment: Bystander BRET endosomal trafficking (β-arrestin 1-Nluc, FYVE-mVenus), HEK293 (SSTR2 mutants);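 further: Read-out is the BRET ratio between Nluc-fused β-arrestin 1 and the early endosome marker FYVE-mVenus, measured after ligand addition with coelenterazine h as substrate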
QUANTITY NAME: pEC50
# log scale: pEC50 equals minus log10 of the concentration in mol/L

Quick check: pEC50 of "N#Cc1cccc(-c2ccc3ncc(-c4cc(F)cc(F)c4)c(N4CCC(N)CC4)c3c2)c1O" ? 7.05

---

System: SSTR2 mutants
Experiment: SSTRs Gi-mediated cAMP inhibition, GloSensor, HEK293, 5 μM forskolin, 15 min room temperature (SSTR2 mutants)
Format: cell-based, human
Conditions: L99A, run 3, best-fit
Experimental: The levels of the intracellular 3′, 5′-cyclic AMP (cAMP) were measured by the GloSensor cAMP assay (Promega) as described in the previous studies[28],[41] which has been widely used. The human full-length SSTRs and mutants were cloned into the pcDNA3.1+ vector with a HA signal sequence followed by a Flag tag at the N-terminus. […] Fluorescence signals were measured using the Synergy H1 microplate reader (BioTek) and the data presented are means of at least three independent experiments.
QUANTITY NAME: EC50 (µM)
Your answer should be a plain number; it is taken to be in µM.

Quick check: EC50 of N#Cc1cccc(-c2ccc3ncc(-c4cc(F)cc(F)c4)c(N4CCC(N)CC4)c3c2)c1O [paltusotine] ? 0.0224

---

Molecular target: SSTR3 mutants (Homo sapiens, UniProt P32745, F296D)
Sequence (P32745 whole entry F296D): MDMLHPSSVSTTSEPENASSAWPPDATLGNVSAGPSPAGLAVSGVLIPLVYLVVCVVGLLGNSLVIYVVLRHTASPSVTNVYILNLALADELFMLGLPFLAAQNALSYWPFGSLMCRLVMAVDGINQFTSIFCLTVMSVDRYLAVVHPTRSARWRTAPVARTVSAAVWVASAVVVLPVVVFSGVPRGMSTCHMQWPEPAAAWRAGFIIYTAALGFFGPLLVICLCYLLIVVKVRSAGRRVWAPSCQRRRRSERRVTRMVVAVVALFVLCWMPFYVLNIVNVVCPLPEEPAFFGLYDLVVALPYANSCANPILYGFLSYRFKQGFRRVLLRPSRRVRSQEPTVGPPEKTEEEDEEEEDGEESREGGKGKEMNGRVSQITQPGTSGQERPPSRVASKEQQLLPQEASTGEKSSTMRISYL
Assay: SSTRs Gi-mediated cAMP inhibition, GloSensor, HEK293 (SSTR3 mutants)
Assay type: cell-based
Conditions: best-fit; SSTR3 F296D-1; read-out: EC50
QUANTITY NAME: pEC50
# log scale: pEC50 equals minus log10 of the concentration in mol/L

Quick check: pEC50 of N#Cc1cccc(-c2ccc3ncc(-c4cc(F)cc(F)c4)c(N4CCC(N)CC4)c3c2)c1O [paltusotine] ? 6.01

---

System: SSTR2 mutants
Experiment: SSTRs Gi-mediated cAMP inhibition, GloSensor, HEK293, 5 μM forskolin, 15 min room temperature (SSTR2 mutants)
Format: cell-based, human
Details: read-out: EC50 (best-fit value); F208A-1 (run 1)
QUANTITY NAME: EC50 (nM)
Your answer should be a plain number; it is taken to be in nM.

Quick check: EC50 of "N#Cc1cccc(-c2ccc3ncc(-c4cc(F)cc(F)c4)c(N4CCC(N)CC4)c3c2)c1O" ? 14.9

---

Molecular target: SSTR2 (Homo sapiens)
Assay: SSTRs Gi-mediated cAMP inhibition, GloSensor, HEK293, 5 μM forskolin, 15 min room temperature (SSTR2 wild-type)
Format: cell-based
Settings: EC50, cAMP inhibition best-fit; Q102A set; WT-2
Sequence (P30874 whole entry): as the sequence (P30874 whole entry) above
QUANTITY NAME: pEC50
# log scale: pEC50 equals minus log10 of the concentration in mol/L

Quick check: pEC50 of N#Cc1cccc(-c2ccc3ncc(-c4cc(F)cc(F)c4)c(N4CCC(N)CC4)c3c2)c1O [paltusotine] ? 8.92

---

Test system: SSTR2 mutants
Assay: NanoBiT β-arrestin 1 recruitment assay, HEK293 (SSTR2 mutants)
Assay type: cell-based, human
Conditions: read-out: EC50 (β-arrestin1 recruitment); best-fit, K291A-2
QUANTITY NAME: EC50

Quick check: EC50 of "N#Cc1cccc(-c2ccc3ncc(-c4cc(F)cc(F)c4)c(N4CCC(N)CC4)c3c2)c1O" ? 90.2 nM

---

System: SSTR2 mutants
Assay: SSTRs Gi-mediated cAMP inhibition, GloSensor, HEK293, 5 μM forskolin, 15 min room temperature (SSTR2 mutants)
Type: cell-based, human
Details: cAMP inhibition best-fit; F127A-3
QUANTITY NAME: pEC50
# log scale: pEC50 equals minus log10 of the concentration in mol/L

Quick check: pEC50 of "N#Cc1cccc(-c2ccc3ncc(-c4cc(F)cc(F)c4)c(N4CCC(N)CC4)c3c2)c1O" ? 9.18

---

Target: SSTR2 (Homo sapiens, UniProt P30874)
Experiment: SSTRs Gi-mediated cAMP inhibition, GloSensor, HEK293, 5 μM forskolin, 15 min room temperature (SSTR2 wild-type)
Format: cell-based
Details: EC50, WT-3, run paired with T194H
QUANTITY NAME: pEC50
# log scale: pEC50 equals minus log10 of the concentration in mol/L

Item: "N#Cc1cccc(-c2ccc3ncc(-c4cc(F)cc(F)c4)c(N4CCC(N)CC4)c3c2)c1O" Test system: SSTR2 (Homo sapiens, UniProt P30874) Read-out: pEC50 Value: ? 8.87

---

Biological target: SSTR3 (Homo sapiens)
Construct: The human full-length SSTRs and mutants were cloned into the pcDNA3.1+ vector; expressed in transfected cells; host or cells: HEK293 (ATCC, CRL-1573)
Assay: SSTRs Gi-mediated cAMP inhibition, GloSensor, HEK293 (SSTR3 wild-type)
Format: cell-based
Conditions: best-fit; SSTR3 WT-2 (H192T set); read-out: EC50
QUANTITY NAME: pEC50
# log scale: pEC50 equals minus log10 of the concentration in mol/L

Quick check: pEC50 of N#Cc1cccc(-c2ccc3ncc(-c4cc(F)cc(F)c4)c(N4CCC(N)CC4)c3c2)c1O [paltusotine] ? 7.56

---

System: SSTR2 mutants
Experiment: SSTRs Gi-mediated cAMP inhibition, GloSensor, HEK293, 5 μM forskolin, 15 min room temperature (SSTR2 mutants)
Format: cell-based, human
Details: read-out: EC50 (best-fit value), cAMP inhibition; F294A-3 (run 3)
QUANTITY NAME: EC50 (nM)
Your answer should be a plain number; it is taken to be in nM.

Quick check: EC50 of N#Cc1cccc(-c2ccc3ncc(-c4cc(F)cc(F)c4)c(N4CCC(N)CC4)c3c2)c1O [paltusotine] ? 0.15

---

Target: SSTR3 (Homo sapiens, UniProt P32745)
Construct: The human full-length SSTRs and mutants were cloned into the pcDNA3.1+ vector; expressed in transfected cells; host or cells: HEK293 (ATCC, CRL-1573)
Sequence (P32745 whole entry): as the sequence (P32745 whole entry F296D) above, with D296F counted along it
Test: SSTRs Gi-mediated cAMP inhibition, GloSensor, HEK293 (SSTR3 wild-type)
Assay type: cell-based
Settings: best-fit; SSTR3 WT-2 (M193I set); read-out: EC50
QUANTITY NAME: pEC50
# log scale: pEC50 equals minus log10 of the concentration in mol/L

Item: N#Cc1cccc(-c2ccc3ncc(-c4cc(F)cc(F)c4)c(N4CCC(N)CC4)c3c2)c1O [paltusotine] Test system: SSTR3 (Homo sapiens, UniProt P32745) Read-out: pEC50 Value: ? 7.20

---

Test system: SSTR2 mutants
Assay: SSTRs Gi-mediated cAMP inhibition, GloSensor, HEK293, 5 μM forskolin, 15 min room temperature (SSTR2 mutants)
Format: cell-based, human
Conditions: cAMP inhibition best-fit; V103A-2
QUANTITY NAME: pEC50
# log scale: pEC50 equals minus log10 of the concentration in mol/L

Quick check: pEC50 of N#Cc1cccc(-c2ccc3ncc(-c4cc(F)cc(F)c4)c(N4CCC(N)CC4)c3c2)c1O [paltusotine] ? 8.15

---

System: SSTR2 mutants
Experiment: SSTRs Gi-mediated cAMP inhibition, GloSensor, HEK293, 5 μM forskolin, 15 min room temperature (SSTR2 mutants)
Type: cell-based, human
Settings: T194A, run 3, best-fit
QUANTITY NAME: EC50 (µM)
Your answer should be a plain number; it is taken to be in µM.

Quick check: EC50 of N#Cc1cccc(-c2ccc3ncc(-c4cc(F)cc(F)c4)c(N4CCC(N)CC4)c3c2)c1O [paltusotine] ? 0.125

All values here come from paper PMC9944328.
